Provenance of the data: the RNAGym collection of RNA variant scans (doi:10.1002/anie.201605470)

B1: Osa-1-4 twister ribozyme (parent)
chain: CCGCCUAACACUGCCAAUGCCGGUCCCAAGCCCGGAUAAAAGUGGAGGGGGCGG

Variants of: B1
PROTOCOL TEXT: self-cleavage, relative activity (ratio to wild type); higher = more cleavage; co-transcriptional
VALUE TYPE: self-cleavage
Answers are plain numbers.

Illustrative cases are given below, each with its answer.
INSERT INTO assay_data (mutation_string, quantitative_result) VALUES
  ('C15G G49A', 0.07),
  ('G44C G45U', 0.07),
  ('A40U C20U', 0.81),
  ('C11G G48C', 0.03),
  ('A10G U24C', 0.1);

**Query** What does the data say about its self-cleavage? Entry: A28G G47U
**Result** 0.07
